Source listed as paper PMC8341145.

biological target: UniProt P08684; assay: CYP inhibition assay; type: cell-based
Sequence (P08684 2-503): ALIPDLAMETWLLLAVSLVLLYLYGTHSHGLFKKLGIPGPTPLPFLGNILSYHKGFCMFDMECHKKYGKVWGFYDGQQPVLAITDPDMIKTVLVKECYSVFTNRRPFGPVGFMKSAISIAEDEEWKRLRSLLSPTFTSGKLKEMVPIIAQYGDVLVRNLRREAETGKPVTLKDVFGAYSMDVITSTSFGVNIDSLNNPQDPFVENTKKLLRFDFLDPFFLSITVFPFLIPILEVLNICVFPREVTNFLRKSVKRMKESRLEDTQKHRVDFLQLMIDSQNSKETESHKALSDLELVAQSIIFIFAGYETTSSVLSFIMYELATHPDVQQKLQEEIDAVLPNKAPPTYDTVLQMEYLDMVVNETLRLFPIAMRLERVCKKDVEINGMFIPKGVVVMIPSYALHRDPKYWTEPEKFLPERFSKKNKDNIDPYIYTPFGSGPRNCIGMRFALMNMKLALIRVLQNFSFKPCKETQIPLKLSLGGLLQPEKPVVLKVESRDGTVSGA

molecule: CN(C[c-]1cccc1)CC(O)(Cn1cncn1)c1ccc(F)cc1F.Cl.[Fe+2].c1cc[cH-]c1 (stereo not shown)
IC50 (nM): 400

* * *

target: CYP2D6 (Homo sapiens); assay: CYP inhibition assay; assay type: cell-based
Sequence (P10635 whole entry): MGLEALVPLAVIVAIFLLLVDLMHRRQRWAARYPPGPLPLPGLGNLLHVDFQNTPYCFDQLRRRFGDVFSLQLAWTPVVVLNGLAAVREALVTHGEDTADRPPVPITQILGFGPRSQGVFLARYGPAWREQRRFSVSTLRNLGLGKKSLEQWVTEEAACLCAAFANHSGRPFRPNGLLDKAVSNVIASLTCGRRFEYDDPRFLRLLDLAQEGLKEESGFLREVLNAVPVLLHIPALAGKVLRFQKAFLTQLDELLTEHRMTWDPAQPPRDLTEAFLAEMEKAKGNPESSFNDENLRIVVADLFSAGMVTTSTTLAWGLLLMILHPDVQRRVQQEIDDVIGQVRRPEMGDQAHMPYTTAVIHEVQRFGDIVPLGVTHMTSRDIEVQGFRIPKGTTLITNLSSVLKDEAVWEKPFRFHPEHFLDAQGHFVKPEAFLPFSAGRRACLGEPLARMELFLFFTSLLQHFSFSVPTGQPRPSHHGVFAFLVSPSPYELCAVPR
pIC50: −log10 of the molar value.

molecule: CN(C[c-]1cccc1)CC(O)(Cn1cncn1)c1ccc(F)cc1F.Cl.[Fe+2].c1cc[cH-]c1 (stereo not shown)
pIC50: 5.57

* * *

target: CYP2C9 (Homo sapiens, UniProt P11712); test: CYP inhibition assay; type: cell-based
Sequence (P11712 whole entry): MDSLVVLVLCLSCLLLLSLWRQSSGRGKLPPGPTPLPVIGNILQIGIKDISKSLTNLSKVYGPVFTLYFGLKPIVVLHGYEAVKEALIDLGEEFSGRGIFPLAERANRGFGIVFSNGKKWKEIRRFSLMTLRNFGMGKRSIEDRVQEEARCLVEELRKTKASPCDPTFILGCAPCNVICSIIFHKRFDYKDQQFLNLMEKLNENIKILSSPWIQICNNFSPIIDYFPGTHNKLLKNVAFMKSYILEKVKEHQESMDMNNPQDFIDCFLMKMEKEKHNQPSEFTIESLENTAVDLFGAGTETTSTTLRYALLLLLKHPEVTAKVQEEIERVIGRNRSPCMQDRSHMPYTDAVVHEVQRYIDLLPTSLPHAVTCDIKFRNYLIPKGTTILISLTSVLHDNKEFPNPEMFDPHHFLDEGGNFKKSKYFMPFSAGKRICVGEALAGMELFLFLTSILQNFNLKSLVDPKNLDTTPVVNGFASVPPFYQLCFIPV

compound: CN(C[c-]1cccc1)CC(O)(Cn1cncn1)c1ccc(F)cc1F.Cl.[Fe+2].c1cc[cH-]c1 (stereo not shown)
IC50 (µM): 3.33
